These entries and their values trace back to ChEMBL document CHEMBL4402567.

Test system: Human adenovirus 5
Assay: Antiviral activity against Human adenovirus 5 infected in 293beta5 cells assessed as inhibition of plaque formation incubated for 7 days by GFP reporter gene assay
Type: functional, organism-based
Details: Human mastadenovirus C, 293beta5, 168 h
pIC50: −log10 of the molar value.
measuredAttribute: pIC50

See these solved cases before continuing.
O=C(NCc1ccc(C(F)(F)F)c(F)c1)c1cc(Cl)ccc1O : 5.85
CC(C)(C)OC(=O)CC[C@H](NC(=O)c1cc(Cl)ccc1O)C(=O)Nc1ccc([N+](=O)[O-])cc1Cl : 6.17
CC(C)[C@H](NC(=O)c1cc(Cl)ccc1NS(C)(=O)=O)C(=O)Nc1ccc([N+](=O)[O-])cc1Cl : 6.17
O=C(NCc1ccc([N+](=O)[O-])cc1Cl)c1cc(Cl)ccc1O : 5.85
O=C(N[C@@H](Cc1ccccc1)C(=O)Nc1ccc([N+](=O)[O-])cc1Cl)c1cc(Cl)ccc1O : 5.15

(1) CC(C)(NC(=O)c1cc(Cl)ccc1O)c1ccc(F)cc1
(2) CC(C)[C@H](NC(=O)c1cc(Cl)ccc1O)C(=O)Nc1cc(F)cc(C(F)(F)F)c1
Query :: Would you mind telling me which has the lower recorded pIC50 between 1 and 2 ? Mark your answer with the label of the selected entry.
Result :: 1
(1: 5.46, 2: 6.18)

(P) O=C(Nc1cc(F)cc(C(F)(F)F)c1)c1cc(Cl)ccc1O
(Q) CC(C)[C@H](NC(=O)c1cc(Cl)ccc1O)C(=O)Nc1ccc([N+](=O)[O-])cc1Cl
Query :: Dear colleague, could you let me know whether P or Q has the lower recorded pIC50? Thanks. // caller expects the label of the chosen entry
Result :: Q
(Q: 6.35, P: 6.74)
